Values from ChEMBL document CHEMBL2331531

Test: Oral bioavailability in Sprague-Dawley rat at 2 mg/kg by LC-MS/MS analysis
Assay type: ADME, organism-based
Settings: in vivo
observed-property: bioavailability (%)

* O=C(Nc1ccc(-c2cn[nH]c2)cc1)NC(CCO)c1cccc(F)c1 (stereo unspecified) | 28
* COc1cccc(CN(CCN(C)C)C(=O)Nc2ccc(-c3cn[nH]c3)cc2)c1 | 10

A. CCN(Cc1cccc(OC)c1)C(=O)Nc1ccc(-c2cn[nH]c2)cc1O[C@H]1CCN(C)C1
B. O=C(Nc1ccc(-c2cn[nH]c2)cc1)N(CCO)Cc1ccccc1
C. CN(C)CCC(NC(=O)Nc1ccc(-c2cn[nH]c2)cc1)c1ccccc1 (stereo unspecified)
D. COc1cccc(C(CCO)NC(=O)Nc2ccc(-c3cn[nH]c3)cc2)c1 (stereo unspecified)
Put these in order: smallest bioavailability first, largest last. Output the labels ranked as instructed. C, D, A, B
(C: 0%, D: 4%, A: 11%, B: 46%)

A. COc1cccc(CN(CCN2CCCCC2)C(=O)Nc2ccc(-c3cn[nH]c3)cc2)c1
B. COc1cccc(CN(CCO)C(=O)Nc2ccc(-c3cn[nH]c3)cc2)c1
Returns: the argument ( A or B ) having the larger bioavailability. State your choice using its label. B

P. COc1cccc(CN(CCN2CCCC2)C(=O)Nc2ccc(-c3cn[nH]c3)cc2)c1
Q. COc1cccc(CN(C)C(=O)Nc2ccc(-c3cn[nH]c3)cc2)c1
Of the pair P and Q , name the member with the lesser recorded bioavailability. Return value: the label identifying the chosen record. P
(P: 0%, Q: 48%)

###

Molecular target: Rho-associated protein kinase 2 (Homo sapiens, UniProt O75116)
Sequence (O75116 whole entry): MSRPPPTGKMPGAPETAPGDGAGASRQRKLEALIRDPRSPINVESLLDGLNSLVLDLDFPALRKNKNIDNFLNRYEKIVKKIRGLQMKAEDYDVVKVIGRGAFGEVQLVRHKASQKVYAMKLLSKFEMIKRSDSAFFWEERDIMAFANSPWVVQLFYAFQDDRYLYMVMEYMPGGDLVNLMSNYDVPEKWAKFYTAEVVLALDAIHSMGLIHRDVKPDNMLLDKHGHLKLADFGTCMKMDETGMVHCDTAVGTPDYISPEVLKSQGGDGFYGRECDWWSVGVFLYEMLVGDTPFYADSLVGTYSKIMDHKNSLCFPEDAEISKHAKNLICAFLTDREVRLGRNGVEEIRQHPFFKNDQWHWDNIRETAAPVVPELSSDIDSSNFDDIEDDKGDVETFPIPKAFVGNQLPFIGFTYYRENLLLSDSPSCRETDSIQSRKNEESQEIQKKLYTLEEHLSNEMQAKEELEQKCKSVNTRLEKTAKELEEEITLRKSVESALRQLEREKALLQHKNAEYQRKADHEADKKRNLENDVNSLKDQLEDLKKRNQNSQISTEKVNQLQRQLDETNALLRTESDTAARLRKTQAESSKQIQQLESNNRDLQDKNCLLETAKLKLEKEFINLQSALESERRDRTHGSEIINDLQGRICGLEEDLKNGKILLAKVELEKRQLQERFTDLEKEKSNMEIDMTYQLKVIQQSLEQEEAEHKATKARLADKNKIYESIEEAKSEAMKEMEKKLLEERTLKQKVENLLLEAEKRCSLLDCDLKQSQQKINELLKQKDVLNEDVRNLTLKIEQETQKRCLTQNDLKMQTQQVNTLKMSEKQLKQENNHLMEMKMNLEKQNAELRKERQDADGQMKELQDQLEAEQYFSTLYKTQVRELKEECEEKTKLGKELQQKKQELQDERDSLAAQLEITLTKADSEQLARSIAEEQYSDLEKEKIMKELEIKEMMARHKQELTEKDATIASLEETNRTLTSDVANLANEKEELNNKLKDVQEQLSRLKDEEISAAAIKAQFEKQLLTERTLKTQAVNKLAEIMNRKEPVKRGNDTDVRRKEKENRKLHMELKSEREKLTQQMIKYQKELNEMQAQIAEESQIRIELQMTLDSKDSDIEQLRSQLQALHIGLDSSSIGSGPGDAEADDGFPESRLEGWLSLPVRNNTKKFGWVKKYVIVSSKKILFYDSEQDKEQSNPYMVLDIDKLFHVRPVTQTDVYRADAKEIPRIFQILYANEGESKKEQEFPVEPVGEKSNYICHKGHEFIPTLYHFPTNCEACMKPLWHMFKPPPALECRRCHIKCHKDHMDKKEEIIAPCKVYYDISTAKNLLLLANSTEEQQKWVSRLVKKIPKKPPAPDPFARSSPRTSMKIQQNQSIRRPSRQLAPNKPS
pIC50: −log10 of the molar value.
observed-property: pIC50

• COc1cccc(CN(C(=O)Nc2ccc(-c3cn[nH]c3)cc2)C(C)C)c1 = 8.52

I. O=C(Nc1ccccc1)Nc1ccc(-c2cn[nH]c2)cc1
II. COc1cccc(CN(C)C(=O)Nc2ccc(-c3cn[nH]c3)cc2)c1
Which item exceeds the other in pIC50, I or II ? Write down the label attached to your selection. II
(II: 9.00, I: 6.52)

###

Assay: AUC in Sprague-Dawley rat at 1 mg/kg, iv by LC-MS/MS analysis
Type: ADME, organism-based, Plasma
Design: dose 1 mg/kg, route intravenous
Settings: Sprague-Dawley, plasma
observed-property: AUC (µM·h)

Observe how each entry below is paired with its result.
* COc1cccc(CN(CCN2CCCC2)C(=O)Nc2ccc(-c3cn[nH]c3)cc2)c1 | 0.6
* CCN(Cc1cccc(OC)c1)C(=O)Nc1ccc(-c2cn[nH]c2)cc1O[C@H]1CCN(C)C1 | 1.3

a. CN(C)CCC(NC(=O)Nc1ccc(-c2cn[nH]c2)cc1)c1ccccc1 (stereo not given)
b. COc1cccc(C(CCO)NC(=O)Nc2ccc(-c3cn[nH]c3)cc2)c1 (stereo not given)
Could you please tell me which of these two has the higher AUC: a or b ? In your reply, give the label of the chosen option. b
(b: 7.9 µM·h, a: 0.5 µM·h)

###

Assay: Half life in Sprague-Dawley rat at 1 mg/kg, iv by LC-MS/MS analysis
Assay type: ADME, organism-based
Parameters: dose 1 mg/kg, route intravenous
Conditions: in vivo
observed-property: half-life (h)

* COc1cccc(CN(CCN2CCCCC2)C(=O)Nc2ccc(-c3cn[nH]c3)cc2)c1 | 1
* COc1cccc(CN(C)C(=O)Nc2ccc(-c3cn[nH]c3)cc2)c1 | 1
* COc1cccc(CN(CCN2CCCC2)C(=O)Nc2ccc(-c3cn[nH]c3)cc2)c1 | 1
